EXPERIMENTAL TARGET: Ba/F3 KIF5B-RET cells (Homo sapiens)
Construct: Ba/F3 KIF5B-RET IC50 (nM); other: CellTiter-Glo, 72 hrs; fused on or other part: P33176 (Kinesin-1 heavy chain)
Sequence (P07949 whole entry, change not shown, the tested form may be a part): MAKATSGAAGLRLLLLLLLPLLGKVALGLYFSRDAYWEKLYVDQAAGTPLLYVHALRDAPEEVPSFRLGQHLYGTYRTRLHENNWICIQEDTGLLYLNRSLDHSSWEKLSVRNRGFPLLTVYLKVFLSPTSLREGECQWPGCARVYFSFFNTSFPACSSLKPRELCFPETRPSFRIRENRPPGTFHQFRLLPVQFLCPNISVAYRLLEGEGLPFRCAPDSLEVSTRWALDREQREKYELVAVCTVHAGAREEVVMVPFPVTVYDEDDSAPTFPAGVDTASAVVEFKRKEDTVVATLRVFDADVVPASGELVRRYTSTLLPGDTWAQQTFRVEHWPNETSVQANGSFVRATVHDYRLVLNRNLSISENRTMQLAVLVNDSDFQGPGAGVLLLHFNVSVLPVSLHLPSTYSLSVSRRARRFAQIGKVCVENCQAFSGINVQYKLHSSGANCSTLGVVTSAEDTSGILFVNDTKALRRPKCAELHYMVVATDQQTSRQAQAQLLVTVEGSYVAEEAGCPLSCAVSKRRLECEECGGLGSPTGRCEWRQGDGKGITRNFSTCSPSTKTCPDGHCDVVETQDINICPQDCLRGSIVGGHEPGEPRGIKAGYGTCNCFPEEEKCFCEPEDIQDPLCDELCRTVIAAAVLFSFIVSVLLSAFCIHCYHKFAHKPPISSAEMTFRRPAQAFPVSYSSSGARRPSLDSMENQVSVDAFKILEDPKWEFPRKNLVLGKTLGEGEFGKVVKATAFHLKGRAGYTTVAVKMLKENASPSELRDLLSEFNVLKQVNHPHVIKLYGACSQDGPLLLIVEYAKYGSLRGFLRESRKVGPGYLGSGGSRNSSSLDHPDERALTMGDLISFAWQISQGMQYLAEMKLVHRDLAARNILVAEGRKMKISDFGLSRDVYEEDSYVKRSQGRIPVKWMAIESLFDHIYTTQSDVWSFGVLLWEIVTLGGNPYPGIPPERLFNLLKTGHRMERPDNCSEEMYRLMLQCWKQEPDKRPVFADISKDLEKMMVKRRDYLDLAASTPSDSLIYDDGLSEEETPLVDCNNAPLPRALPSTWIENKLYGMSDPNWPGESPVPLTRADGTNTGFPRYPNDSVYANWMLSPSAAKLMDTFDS
ASSAY INFO: Cytotoxicity assay (CellTiter-Glo), Ba/F3 KIF5B-RET
Assay type: cell-based
DETAILS: CellTiter-Glo, 72 hrs; read-out: Ba/F3 KIF5B-RET IC50
Threshold-based label: GI50 under 2 nM gives Y, GI50 not under 2 nM gives N.

COMPOUND	LABEL VALUE
CC(C)n1cc(-c2ccc(CC(=O)Nc3cc(C(C)(C)C(F)(F)F)on3)cc2)c2c(N)ncnc21	Y
CC(C)n1nc(-c2ccc(CC(=O)Nc3cc(C(C)(C)C(F)(F)F)on3)c(F)c2)c2c(N)ncnc21	Y
CC(C)n1nc(-c2ccc(NC(=O)Nc3cc(C(F)(F)F)ccc3F)cc2)c2c(N)ncnc21 [AD80, reference compound]	N
CC(C)c1cc(-c2ccc(CC(=O)Nc3cc(C(C)(C)C(F)(F)F)on3)cc2)c2c(N)ncnn12	N
CC(C)n1nc(-c2ccc(NC(=O)Nc3cc(C(C)(C)C(F)(F)F)on3)cc2)c2c(N)ncnc21	Y

Turning now to a further compound:
# input Hello, I'm reviewing records and need to know if GI50 of `[2H]C([2H])([2H])C(n1cc(-c2ccc(CC(=O)Nc3cc(C(C)(C)C(F)(F)F)on3)cc2)c2c(N)ncnc21)C([2H])([2H])[2H]` is below 2 nM. Could you check?
# output N

====

ASSAY INFO: Safety assay (body weight, tolerability) in Ba/F3 KIF5B-RET^G810R cell line tumor model
Type: in vivo
DETAILS: 25 mg/kg p.o. QD × 13, day 13
METRIC NAME: Average weight g (x ± S), Day 13 of administration (g)
Numbers only here, please. The scale is g.

Past entries and their recorded results:
MOLECULE	EXPERIMENTAL VALUE
CC(C)n1cc(-c2ccc(CC(=O)Nc3cc(C(C)(C)C(F)(F)F)on3)cc2)c2c(N)ncnc21	23.1
CC(C)n1nc(-c2ccc(CC(=O)Nc3cc(C(C)(C)C(F)(F)F)on3)cc2)c2c(N)ncnc21	21.3
CC(C)n1nc(-c2ccc(NC(=O)Nc3cc(C(C)(C)C(F)(F)F)on3)cc2)c2c(N)ncnc21	21.7
CC(C)n1nc(-c2ccc(CC(=O)Nc3cc(C(C)(C)C(F)(F)F)on3)c(F)c2)c2c(N)ncnc21	22.4
CC(C)n1nc(-c2ccc(NC(=O)Nc3cc(C(F)(F)F)ccc3F)cc2)c2c(N)ncnc21 [AD80, reference compound]	20.7

For this molecule ( `CC(C)n1nc(-c2ccc(CC(=O)Nc3cc(C(C)(C)C(F)(F)F)no3)cc2)c2c(N)ncnc21` ), measured Average weight g (x ± S), Day 13 of administration is 22.5

====

ASSAY INFO: Safety assay (body weight, tolerability) in Ba/F3 KIF5B-RET cell line tumor model
Type: in vivo
DETAILS: during the treatment
METRIC NAME: tolerability (weight loss, drug withdrawal, drug toxicity)

Known results for compounds:
COMPOUND	EXPERIMENTAL VALUE
CC(C)n1nc(-c2ccc(CC(=O)Nc3cc(C(C)(C)C(F)(F)F)no3)cc2)c2c(N)ncnc21	well tolerated
CC(C)n1nc(-c2ccc(NC(=O)Nc3cc(C(C)(C)C(F)(F)F)on3)cc2)c2c(N)ncnc21	well tolerated
CC(C)n1nc(-c2ccc(CC(=O)Nc3cc(C(C)(C)C(F)(F)F)on3)cc2)c2c(N)ncnc21	well tolerated
CC(C)n1cc(-c2ccc(CC(=O)Nc3cc(C(C)(C)C(F)(F)F)on3)cc2)c2c(N)ncnc21	well tolerated

Consider CC(C)n1nc(-c2ccc(NC(=O)Nc3cc(C(F)(F)F)ccc3F)cc2)c2c(N)ncnc21 [AD80, reference compound] . Its measured tolerability (weight loss, drug withdrawal, drug toxicity) is well tolerated

Kindly note the recorded tolerability (weight loss, drug withdrawal, drug toxicity) for `CC(C)n1nc(-c2ccc(CC(=O)Nc3cc(C(C)(C)C(F)(F)F)on3)c(F)c2)c2c(N)ncnc21` , which is well tolerated

====

Tested on: Ba/F3 FLT3-ITD^F691L cells
ASSAY INFO: Cytotoxicity assay (CellTiter-Glo), Ba/F3 FLT3-ITD F691L
Assay type: cell-based
DETAILS: ratio of Ba/F3 parental IC50 to Ba/F3 FLT3-ITD^F691L IC50
METRIC NAME: Ba/F3 FLT3-ITD^F691L Selectivity on parental generation
In your answer, state the number alone without any accompanying words.

The cases that follow already have their Ba/F3 FLT3-ITD^F691L Selectivity on parental generation on record.
MOLECULE	EXPERIMENTAL TARGET	EXPERIMENTAL VALUE
CC(C)n1nc(-c2ccc(CC(=O)Nc3cc(C(C)(C)C(F)(F)F)on3)cc2)c2c(N)ncnc21 [Compound T-1]	Ba/F3 FLT3-ITD^F691L cells	210.4
CC(C)n1nc(-c2ccc(CC(=O)Nc3cc(C(C)(C)C(F)(F)F)on3)c(F)c2)c2c(N)ncnc21 [Compound T-6]	Ba/F3 FLT3-ITD^F691L cells	334.7
[2H]C([2H])([2H])C(n1cc(-c2ccc(CC(=O)Nc3cc(C(C)(C)C(F)(F)F)on3)cc2)c2c(N)ncnc21)C([2H])([2H])[2H] [Compound T-12]	Ba/F3 FLT3-ITD^F691L cells	289.7
CC(C)c1nc(-c2ccc(CC(=O)Nc3cc(C(C)(C)C(F)(F)F)on3)cc2)c2c(N)nccn12 [Compound T-4]	Ba/F3 FLT3-ITD^F691L cells	42.2

Lookup result for CC(C)n1nc(-c2ccc(CC(=O)Nc3cc(C(C)(C)C(F)(F)F)no3)cc2)c2c(N)ncnc21 [Compound T-8] ; measured Ba/F3 FLT3-ITD^F691L Selectivity on parental generation: 585.5

GET /value?item= CC(C)n1nc(-c2ccc(CC(=O)Nc3cc(C(C)(C)C(F)(F)F)no3)cn2)c2c(N)ncnc21 [Compound T-9] &field=Ba/F3 FLT3-ITD^F691L Selectivity on parental generation returns 146.5

In plain terms, CC(C)n1nc(-c2ccc(CC(=O)Nc3cc(C(C)(C)C(F)(F)F)on3)cn2)c2c(N)ncnc21 [Compound T-7] has a documented Ba/F3 FLT3-ITD^F691L Selectivity on parental generation of 101.9

====

What follows is a record of IC50 for UniProt:P07949.

MOLECULE	METRIC NAME	EXPERIMENTAL VALUE
CC(C)n1nc(-c2ccc(NC(=O)Nc3cc(C(C)(C)C(F)(F)F)on3)cc2)c2c(N)ncnc21 [Compound T-2]	IC50	≤ 0.5 nM
CC(C)n1nc(-c2ccc(CC(=O)Nc3cc(C(C)(C)C(F)(F)F)on3)cc2)c2c(N)ncnc21 [Compound T-1]	IC50	≤ 0.5 nM
CC(C)c1nc(-c2ccc(CC(=O)Nc3cc(C(C)(C)C(F)(F)F)on3)cc2)c2c(N)nccn12 [Compound T-4]	IC50	≤ 0.5 nM

For this molecule ( [2H]C([2H])([2H])C(n1cc(-c2ccc(CC(=O)Nc3cc(C(C)(C)C(F)(F)F)on3)cc2)c2c(N)ncnc21)C([2H])([2H])[2H] [Compound T-12] ), measured IC50 is 10 to 50 nM

For record CC(C)n1cc(-c2ccc(CC(=O)Nc3cc(C(C)(C)C(F)(F)F)on3)cc2)c2c(N)ncnc21 [Compound T-3] the listed IC50 is ≤ 0.5 nM

The recorded IC50 for entry CC(C)n1nc(-c2ccc(CC(=O)Nc3cc(C(C)(C)C(F)(F)F)on3)c(F)c2)c2c(N)ncnc21 [Compound T-6] equals ≤ 0.5 nM

The recorded IC50 for CC(C)n1nc(-c2ccc(CC(=O)Nc3cc(C(C)(C)C(F)(F)F)on3)cn2)c2c(N)ncnc21 [Compound T-7] is 1 to 10 nM

====

The following compounds are listed with their measured GI50 values.
EXPERIMENTAL TARGET: Ba/F3 KIF5B-RET cells (Homo sapiens)
Construct: Ba/F3 KIF5B-RET IC50 (nM); other: CellTiter-Glo, 72 hrs; fused on or other part: P33176 (Kinesin-1 heavy chain)
ASSAY INFO: Cytotoxicity assay (CellTiter-Glo), Ba/F3 KIF5B-RET
Type: cell-based
DETAILS: CellTiter-Glo, 72 hrs; read-out: Ba/F3 KIF5B-RET IC50
Value expressed in nM; do not type the unit.

Some entries whose results are on file:
COMPOUND	GI50 [nM]
CC(C)n1nc(-c2ccc(CC(=O)Nc3cc(C(C)(C)C(F)(F)F)no3)cc2)c2c(N)ncnc21 [Compound T-8]	1.03
CC(C)n1nc(-c2ccc(CC(=O)Nc3cc(C(C)(C)C(F)(F)F)on3)cn2)c2c(N)ncnc21 [Compound T-7]	4.61
CC(C)n1nc(-c2ccc(CC(=O)Nc3cc(C(C)(C)C(F)(F)F)no3)cn2)c2c(N)ncnc21 [Compound T-9]	10.9
CC(C)c1nc(-c2ccc(CC(=O)Nc3cc(C(C)(C)C(F)(F)F)on3)cc2)c2c(N)ncnn12 [Compound T-10]	3.68
CC(C)n1nc(-c2ccc(CC(=O)Nc3cc(C(C)(C)C(F)(F)F)on3)cc2)c2c(N)ncnc21 [Compound T-1]	0.15
[2H]C([2H])([2H])C(n1nc(-c2ccc(CC(=O)Nc3cc(C(C)(C)C(F)(F)F)no3)cc2)c2c(N)ncnc21)C([2H])([2H])[2H] [Compound T-11]	1.3

// next entry
Summary for this compound, CC(C)c1nc(-c2ccc(CC(=O)Nc3cc(C(C)(C)C(F)(F)F)on3)cc2)c2c(N)nccn12 [Compound T-4] : GI50 is 1.56
